Below: a set of entries, each annotated with reported pKd.
- TARGET_DESC: hen egg lysozyme, P00698
- Sequence (P00698 19-147): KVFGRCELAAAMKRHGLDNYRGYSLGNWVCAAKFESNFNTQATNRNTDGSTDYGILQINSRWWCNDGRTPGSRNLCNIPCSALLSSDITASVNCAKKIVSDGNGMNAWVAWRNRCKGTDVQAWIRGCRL
- ASSAY_PROCEDURE: SPR
- RUN_PARAMETERS: chain shown with the change;; parent: est. 3.1e-12; read off a plot
pKd: −log10 of the molar value.
ENDPOINT: pKd

1) anti-lysozyme VHH D3-L11, wild type A79M (protein) DVQLVESGGGSVQAGGSLRLSCAASGSTDSIEYMTWFRQAPGKAREGVAALYTHTGNTYYTDSVKGRFTISQDKAKNMMYLRMDSVKSEDTAIYTCGATRKYVPVRFALDQSSYDYWGQGTQVTVSS; 11.17
2) anti-lysozyme VHH D3-L11, wild type A79L (protein) DVQLVESGGGSVQAGGSLRLSCAASGSTDSIEYMTWFRQAPGKAREGVAALYTHTGNTYYTDSVKGRFTISQDKAKNMLYLRMDSVKSEDTAIYTCGATRKYVPVRFALDQSSYDYWGQGTQVTVSS; 11.17
3) anti-lysozyme VHH D3-L11, wild type A79W (protein) DVQLVESGGGSVQAGGSLRLSCAASGSTDSIEYMTWFRQAPGKAREGVAALYTHTGNTYYTDSVKGRFTISQDKAKNMWYLRMDSVKSEDTAIYTCGATRKYVPVRFALDQSSYDYWGQGTQVTVSS; 10.82
4) anti-lysozyme VHH D3-L11, wild type A79Q (protein) DVQLVESGGGSVQAGGSLRLSCAASGSTDSIEYMTWFRQAPGKAREGVAALYTHTGNTYYTDSVKGRFTISQDKAKNMQYLRMDSVKSEDTAIYTCGATRKYVPVRFALDQSSYDYWGQGTQVTVSS; 11.14
5) anti-lysozyme VHH D3-L11, wild type A79I (protein) DVQLVESGGGSVQAGGSLRLSCAASGSTDSIEYMTWFRQAPGKAREGVAALYTHTGNTYYTDSVKGRFTISQDKAKNMIYLRMDSVKSEDTAIYTCGATRKYVPVRFALDQSSYDYWGQGTQVTVSS; 11.31
6) anti-lysozyme VHH D3-L11, wild type A79S (protein) DVQLVESGGGSVQAGGSLRLSCAASGSTDSIEYMTWFRQAPGKAREGVAALYTHTGNTYYTDSVKGRFTISQDKAKNMSYLRMDSVKSEDTAIYTCGATRKYVPVRFALDQSSYDYWGQGTQVTVSS; 10.92
